Data origin, for the record: PubChem BioAssay AID1963834

# key: entry, value: viability, T/C
Test system: 873145-292-R-J1-PDC complex spheroid viability
Test: Anticancer human tumor 873145-292-R-J1-PDC patient-derived renal clear cell carcinoma cell line growth inhibition [POLQ]
Conditions: second compound 10 µM; first compound 0.316 µM; stronger effect = lower value
Note: unit % is implicit; provide only the numeric part.

molecule	metric.name	obs.value
CC1COCCN1c1cc(C2(S(C)(=N)=O)CC2)nc(-c2ccnc3[nH]ccc23)n1 (stereo not given) + Nc1ccc(C#CCN(C(=O)Cc2ncc(C(F)(F)F)cc2C(F)(F)F)c2ccc(F)cc2)nn1	viability, T/C	103

In: Param item = O=C(Nc1ccc(O)c(NS(=O)(=O)c2ccc(F)cc2)c1)c1ccc(-c2ccccc2)cc1 + COC1C(OC(N)=O)C(O)C(Oc2ccc3c(O)c(NC(=O)c4ccc(O)c(CC=C(C)C)c4)c(=O)oc3c2C)OC1(C)C ; retrieve measured viability, T/C.
Out: 92.5

In: Quick check: viability, T/C of C=CC(=O)N1CCN(c2nc(=O)n(-c3c(C)ccnc3C(C)C)c3nc(-c4c(O)cccc4F)c(F)cc23)C(C)C1 (stereo not given) + COC1C(OC(N)=O)C(O)C(Oc2ccc3c(O)c(NC(=O)c4ccc(O)c(CC=C(C)C)c4)c(=O)oc3c2C)OC1(C)C ?
Out: 113

In: # viability, T/C lookup, item C=CCn1c(=O)c2cnc(Nc3ccc(N4CCN(C)CC4)cc3)nc2n1-c1cccc(C(C)(C)O)n1 + Nc1ccc(C#CCN(C(=O)Cc2ncc(C(F)(F)F)cc2C(F)(F)F)c2ccc(F)cc2)nn1
Out: 77.9

In: Requested field: viability, T/C. Item: COc1cc(C2c3cc4c(cc3C(OC3OC5COC(C)OC5C(O)C3O)C3COC(=O)C23)OCO4)cc(OC)c1O (stereo not given) + COC1C(OC(N)=O)C(O)C(Oc2ccc3c(O)c(NC(=O)c4ccc(O)c(CC=C(C)C)c4)c(=O)oc3c2C)OC1(C)C
Out: 95.5

====

Listing of entries alongside the reported viability, T/C.
System: 873145-292-R-J1-PDC complex spheroid viability
Test: Anticancer human tumor 873145-292-R-J1-PDC cell line growth inhibition [POLQ];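 also: spheroids exposed to compounds for 7 days before viability readout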;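 as to viability, T/C: luminescence signal used as surrogate for viable cell content; 100% = DMSO vehicle control viability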
Conditions: second compound 10 µM; first compound 1 µM; stronger effect = lower value

compound	viability, T/C
CCCS(=O)(=O)Nc1ccc(F)c(C(=O)c2c[nH]c3ncc(-c4ccc(Cl)cc4)cc23)c1F + Nc1ccc(C#CCN(C(=O)Cc2ncc(C(F)(F)F)cc2C(F)(F)F)c2ccc(F)cc2)nn1	107%
C=CCn1c(=O)c2cnc(Nc3ccc(N4CCN(C)CC4)cc3)nc2n1-c1cccc(C(C)(C)O)n1 + Nc1ccc(C#CCN(C(=O)Cc2ncc(C(F)(F)F)cc2C(F)(F)F)c2ccc(F)cc2)nn1	77.8%
C=CCn1c(=O)c2cnc(Nc3ccc(N4CCN(C)CC4)cc3)nc2n1-c1cccc(C(C)(C)O)n1 + COC1C(OC(N)=O)C(O)C(Oc2ccc3c(O)c(NC(=O)c4ccc(O)c(CC=C(C)C)c4)c(=O)oc3c2C)OC1(C)C	72%

With those in mind, consider the next compound.
In: Need viability, T/C, item O=C(c1cc(Cc2n[nH]c(=O)c3ccccc23)ccc1F)N1CCN(C(=O)C2CC2)CC1 + Nc1ccc(C#CCN(C(=O)Cc2ncc(C(F)(F)F)cc2C(F)(F)F)c2ccc(F)cc2)nn1
Out: 109%

====

System: 873145-292-R-J1-PDC complex spheroid viability
Experiment: Anticancer human tumor 873145-292-R-J1-PDC cell line growth inhibition [POLQ];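 also: spheroids exposed to compounds for 7 days before viability readout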;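 as to viability, T/C: luminescence signal used as surrogate for viable cell content; 100% = DMSO vehicle control viability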
Details: second compound 0.0316 µM; first compound 0.01 µM; stronger effect = lower value
Procedure: Multicellular complex tumor spheroid response to Polymerase (POL) inhibitors (novobiocin, ART-558, RP6685) in combination with a variety of drugs and investigational agents in selected tumor cell lines The POL inhibitors (novobiocin, ART-558, and RP6685) were evaluated both individually and in combination with standard of care and investigational anticancer small molecules within a complex spheroid model of solid tumors. . […]
The entries below are paired with their reported viability, T/C.

Below, each entry is followed by its recorded viability, T/C result.
compound	viability, T/C
COc1cccc(OCCCN)c1-c1cc(Nc2cnc(C#N)cn2)n[nH]1 + Cc1cccc(N(C)C(=O)C2C(O)CCN2c2nc(C)cc(C(F)(F)F)c2C#N)c1	111%
Cn1ncnc1[C@H]1c2n[nH]c(=O)c3cc(F)cc(c23)N[C@@H]1c1ccc(F)cc1 + Nc1ccc(C#CCN(C(=O)Cc2ncc(C(F)(F)F)cc2C(F)(F)F)c2ccc(F)cc2)nn1	99.3%

In: Give recorded viability, T/C with 873145-292-R-J1-PDC complex spheroid viability for the following compound: C=CCn1c(=O)c2cnc(Nc3ccc(N4CCN(C)CC4)cc3)nc2n1-c1cccc(C(C)(C)O)n1 + COC1C(OC(N)=O)C(O)C(Oc2ccc3c(O)c(NC(=O)c4ccc(O)c(CC=C(C)C)c4)c(=O)oc3c2C)OC1(C)C
Out: 109%

In: Test system 873145-292-R-J1-PDC complex spheroid viability; read-out viability, T/C; what value for CCc1c2c(nc3ccc(O)cc13)-c1cc3c(c(=O)n1C2)COC(=O)[C@]3(O)CC + Cc1cccc(N(C)C(=O)C2C(O)CCN2c2nc(C)cc(C(F)(F)F)c2C#N)c1 ?
Out: 80.6%

In: Look up viability, T/C with 873145-292-R-J1-PDC complex spheroid viability for this compound: CCc1c2c(nc3ccc(O)cc13)-c1cc3c(c(=O)n1C2)COC(=O)[C@]3(O)CC + Nc1ccc(C#CCN(C(=O)Cc2ncc(C(F)(F)F)cc2C(F)(F)F)c2ccc(F)cc2)nn1
Out: 99.2%

====

System: 873145-292-R-J1-PDC complex spheroid viability
Assay: Anticancer human tumor 873145-292-R-J1-PDC cell line growth inhibition [POLQ];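 also: spheroids exposed to compounds for 7 days before viability readout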
Conditions: curve of first compound; second compound 10 µM
metric.name: IC50

Here is how some compounds turned out for IC50.
compound	IC50
CC1COCCN1c1cc(C2(O)CC3CCC(C2)O3)c2cnn(-c3ccn[nH]3)c2n1 (stereo not drawn) + Cc1cccc(N(C)C(=O)C2C(O)CCN2c2nc(C)cc(C(F)(F)F)c2C#N)c1	0.306 µM
C=CCn1c(=O)c2cnc(Nc3ccc(N4CCN(C)CC4)cc3)nc2n1-c1cccc(C(C)(C)O)n1 + COC1C(OC(N)=O)C(O)C(Oc2ccc3c(O)c(NC(=O)c4ccc(O)c(CC=C(C)C)c4)c(=O)oc3c2C)OC1(C)C	> 1 µM
CCc1cc2c(N3CCc4c(cc(Cn5ccnc5)cc4-c4cn(C)nc4C(F)(F)F)C3=O)ccnc2c(OC)n1 + COC1C(OC(N)=O)C(O)C(Oc2ccc3c(O)c(NC(=O)c4ccc(O)c(CC=C(C)C)c4)c(=O)oc3c2C)OC1(C)C	> 10 µM
Nc1ccn(C2OC(CO)C(O)C2(F)F)c(=O)n1 (stereo not drawn) + Nc1ccc(C#CCN(C(=O)Cc2ncc(C(F)(F)F)cc2C(F)(F)F)c2ccc(F)cc2)nn1	> 10 µM
COc1cccc2c1C(=O)c1c(O)c3c(c(O)c1C2=O)CC(O)(C(=O)CO)CC3OC1CC(N)C(O)C(C)O1 (stereo not drawn) + COC1C(OC(N)=O)C(O)C(Oc2ccc3c(O)c(NC(=O)c4ccc(O)c(CC=C(C)C)c4)c(=O)oc3c2C)OC1(C)C	1.5 µM

In: What value of IC50 has been reported for the following compound? CC[C@@]1(O)C(=O)OCc2c1cc1n(c2=O)Cc2cc3c(CN(C)C)c(O)ccc3nc2-1 + Cc1cccc(N(C)C(=O)C2C(O)CCN2c2nc(C)cc(C(F)(F)F)c2C#N)c1
Out: > 0.1 µM

In: Would you kindly share the measured IC50 for CC1COCCN1c1cc(-c2ccnn2C)c2ccnc(-c3ccn[nH]3)c2n1 (stereo not drawn) + Nc1ccc(C#CCN(C(=O)Cc2ncc(C(F)(F)F)cc2C(F)(F)F)c2ccc(F)cc2)nn1 ?
Out: > 10 µM

In: Need IC50 of CCc1c2c(nc3ccc(O)cc13)-c1cc3c(c(=O)n1C2)COC(=O)[C@]3(O)CC + Nc1ccc(C#CCN(C(=O)Cc2ncc(C(F)(F)F)cc2C(F)(F)F)c2ccc(F)cc2)nn1 , thanks.
Out: 0.173 µM

In: Look at this compound and give its reported IC50. O=c1[nH]cc(F)c(=O)[nH]1 + Cc1cccc(N(C)C(=O)C2C(O)CCN2c2nc(C)cc(C(F)(F)F)c2C#N)c1
Out: > 10 µM

In: Request the reported IC50 associated with C=CC(=O)N1CCN(c2nc(=O)n(-c3c(C)ccnc3C(C)C)c3nc(-c4c(O)cccc4F)c(F)cc23)C(C)C1 (stereo not drawn) + Cc1cccc(N(C)C(=O)C2C(O)CCN2c2nc(C)cc(C(F)(F)F)c2C#N)c1
Out: > 10 µM

In: Fill in: IC50 of Cn1ncnc1[C@H]1c2n[nH]c(=O)c3cc(F)cc(c23)N[C@@H]1c1ccc(F)cc1 + COC1C(OC(N)=O)C(O)C(Oc2ccc3c(O)c(NC(=O)c4ccc(O)c(CC=C(C)C)c4)c(=O)oc3c2C)OC1(C)C is ___
Out: > 0.1 µM

In: # get_value(readout='IC50', item= O=C(c1cc(Cc2n[nH]c(=O)c3ccccc23)ccc1F)N1CCN(C(=O)C2CC2)CC1 + COC1C(OC(N)=O)C(O)C(Oc2ccc3c(O)c(NC(=O)c4ccc(O)c(CC=C(C)C)c4)c(=O)oc3c2C)OC1(C)C )
Out: > 10 µM

In: I'd like to know its IC50. The compound in question is COc1cc2cc(C(=O)CCC(=O)O)sc2cc1OC + Nc1ccc(C#CCN(C(=O)Cc2ncc(C(F)(F)F)cc2C(F)(F)F)c2ccc(F)cc2)nn1
Out: > 10 µM
